Assay: ATG_CMV_CIS: Attagene CIS-FACTORIAL HepG2 Assay for human CMV (Internal Marker) (AID 2282928);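 note: endpoint acts as a background internal control marker rather than a target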
Settings: HepG2 CMV promoter reporter, transcription factor profiling; actives raise or lower the signal
Activity calls are given as the source filed them. Rule for the calls: active = hit-call score of the fitted dose curve at least 0.9, where 1 is the maximum; inactive = score below 0.9.
value_kind: AC50

Solved entries:
{"compound": "CCc1cccc(O)c1", "AC50": "inactive"}
{"compound": "CCCCCCCCOS(=O)(=O)O", "AC50": "inactive"}
{"compound": "Nc1ccn([C@H]2CC[C@@H](CO)O2)c(=O)n1", "AC50": "inactive"}
{"compound": "CCCCOCC(C)OCC(C)O (stereo unspecified)", "AC50": "inactive"}
{"compound": "C=CC(O)CCCCC (stereo unspecified)", "AC50": "inactive"}

For each of the items listed, what is its AC50?
1. CCn1cc(C(=O)O)c(=O)c2ccc(C)nc21
2. Cc1cc(O)c(C)c(C)c1O
3. FC(F)(F)c1ccc(Cl)c(Cl)c1

Marked response:
["inactive", "18.5 µM (active)", "inactive"]

For each of the items listed, what is its AC50?
1. CC(=O)CCc1ccc(O)cc1
2. C=CCCCCCCCCC(=O)OCC
3. O=c1cc(-c2ccc(O)cc2)oc2cc(O)cc(O)c12

Marked response:
["inactive", "inactive", "6.31 µM (active)"]

For each of the items listed, what is its AC50?
1. CCCCOCCOC(=O)c1ccccc1C(=O)OCCOCCCC
2. CC(C)=CC(=O)O
3. C=C/C(C)=C/C/C=C(\C)CCC=C(C)C

Marked response:
1: inactive; 2: inactive; 3: inactive
